Reference source for all entries: patent US9707234B2

Test system: HIV-1 (H9IIIB or NL4-3 virus) replication in MT4-GFP cells
Assay: microbe, parasite or virus in culture
Format: cell-based
Settings: Human immunodeficiency virus 1, NL43, MT4-GFP cells infected with HIV-1; 10% normal human serum; inhibition of reproductive ratio R0, 48-72 h post-infection; read-out: ViKinG IP (nM) with 10% NHS
parameterMeasured: IC50 (nM)
Reply with just the number (in nM).

Some compounds with recorded IC50:
CN1C(=O)c2c(O)c(=O)c(C(=O)NCc3ccc(F)cc3F)cn2CC12CCOC2 (single isomer, unassigned) :: 5
CN1C(=O)c2c(O)c(=O)c(-c3nnc(Cc4ccc(F)cc4F)s3)cn2CC12CCNCC2 :: 114

Look up and report measured IC50 for this entry: `CCN1C(=O)c2c(O)c(=O)c(-c3nnc(Cc4ccc(F)cc4F)s3)cn2N(C)C12CCSCC2`
178
